Please respond with reported protein stability index for every item in the list.
# experiment.summary: protein stability index of a GFP-peptide fusion (GPS, HEK-293T) (PSI 1-6); higher = more stable;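 further: 24-mer peptide tiles fused after GFP, lentivirally expressed, FACS-sorted into six equal bins by GFP/DsRed ratio, decoded by Illumina sequencing, PSI is the read-weighted mean bin number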
# run.conditions: treatment: DMSO; c terminus: a fixed tail appended
Give bare numbers.

Recorded protein stability index, per entry:
primary.sequence: EKYGAVREVILKELAEATWCGIST [ZBED1]
metric.name: protein stability index
measured: 2.97

primary.sequence: IDNAADLLIFGKELSAIGSDTTPL [SNX8]
metric.name: protein stability index
measured: 3.22

primary.sequence: SPEVESLPVASSSTLLPLAPSNST [NFE2L1]
metric.name: protein stability index
measured: 5.04

primary.sequence: TSVEECSQKGCLALSLLELLGFNL [CLCN6]
metric.name: protein stability index
measured: 2.57

// each listed sequence needs a value for protein stability index
1. RLLQEEDRRKKIARMGFNASSMLR [DCAF4]
2. TDSDDDFDMSRYSSSGYSSAEINQ [FAM219A]
3. DINGLRRILDELTLCKADLEAQVE [KRT36]

1: 2.52; 2: 5.04; 3: 3.02

// each listed sequence needs a value for protein stability index
1. EEEDDDDIHITARIESDLTLESLS [DRICH1]
2. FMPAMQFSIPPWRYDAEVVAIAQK [MYORG]
3. VKRLHEVGRTEPELLVAHAYTRYL [HMOX1]
4. QLSRDSTLGGKAFHITNDEPIPFW [NSDHL]
5. KVKRSLRQARKKGRHLELANQKLS [CCDC3]

1: 5.16; 2: 2.33; 3: 2.2; 4: 2.89; 5: 4

----------
# experiment.summary: protein stability index of a GFP-peptide fusion (GPS, HEK-293T) (PSI 1-6); higher = more stable
# run.conditions: treatment: MLN4924 1 uM, 8 h; c terminus: a fixed tail appended
Could you label it fulfilled if measured protein stability index is 3 or higher, and not fulfilled otherwise?

primary.sequence: LGPESWQQIAMDPEEVKSLDSNGA [BCL2L13]
group.label: fulfilled

API: above_or_equal(metric=protein stability index, cutoff=3) for item TQQFKAEKLKEKLKMKEREEAWVK [PPP2R5C] fulfilled

Check VLENNLEAVARHMLIFSLALEEPE [DNAAF3] too. not fulfilled

Check VEKEEEPDPEPPPVTPQVGEGRKS [SMG5] too. fulfilled

Check NHFVWRLIPVPMATQIQQLLQDKQ [VPS39] too. not fulfilled

Check VMKLEISPHRKRSDDSDEDEPCAI [DLC1] too. fulfilled

Check LALPPGAEHWTKEHCGAVCFVKDN [WAS] too. fulfilled

Check PAPATQMPSTPGFVGYNPYSHLAY [SMARCE1] too. not fulfilled

Check ELMKCQIIYPRQQLLTLRELEMIG [TRIP13] too. not fulfilled

Check LLTIGDANGEIQRHAEQQALRLEV [CARM1] too. fulfilled

Check IISGVSKVPIAQDELALSLGYAAS [C2CD2L] too. not fulfilled

Check ELNKQVVSSSEQLQSYQAEIIELR [KRT33B] too. fulfilled

Check CLRKYGNANVWKYFTDLFDYLPLT [PPP2CA] too. not fulfilled

Check DSAQMQNGGPSTPPASPPADGSPP [ANKRD40] too. fulfilled

Check AYRGNCKDVSRCVAERKYTQEQAR [SMOC2] too. fulfilled

Check SILNSCEDPVPGMLFFLPPGQHLS [FBXO34] too. not fulfilled

Check FETQMKTLAQFPETLLGDPEKRTQ [KCNA4] too. fulfilled
